Ref: patent US12091425B2

target: Mcl-1/Bim interaction, recombinant human Mcl-1 (171-327) (Homo sapiens, UniProt Q07820); construct: made in house; experiment: Cell free Mcl-1: Bim Affinity Assay (Mcl-1 HTRF); type: binding; conditions: TR-FRET, 0.1 nM Mcl-1 (171-327), 0.05 nM biotin-Bim (51-76)
Sequence (Q07820 171-327): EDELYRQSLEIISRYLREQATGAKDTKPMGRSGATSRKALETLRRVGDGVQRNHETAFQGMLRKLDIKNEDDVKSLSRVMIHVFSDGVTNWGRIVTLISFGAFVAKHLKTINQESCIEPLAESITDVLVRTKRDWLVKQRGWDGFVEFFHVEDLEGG
Measured attribute: IC50 (nM)

Example results:
Compound	IC50 [nM]
CN(C)C(=O)[C@H]1CC/C=C/[C@H](O)[C@@H]2CC[C@H]2CN2C[C@@]3(CCCc4cc(Cl)ccc43)COc3ccc(cc32)C(=O)NS1(=O)=O (single isomer, unassigned) [Example 437]	3.77
CO[C@H]1/C=C/[C@H](C)[C@H](C)[C@@H](C)S(=O)(=O)NC(=O)c2ccc3c(c2)N(C[C@@H]2CC[C@H]21)C[C@@]1(CCCc2cc(Cl)ccc21)CO3 [Example 1047]	0.424
C[C@@H]1CC/C=C/[C@H](OCc2ncn(C)n2)[C@@H]2CC[C@H]2CN2C[C@@]3(CCCc4cc(Cl)ccc43)COc3ccc(cc32)C(=O)NS1(=O)=O [Example 410]	0.144

(a) C[C@H]1/C=C/[C@H](O)[C@@H]2CC[C@H]2CN2C[C@@]3(CCCc4cc(Cl)ccc43)COc3ccc(cc32)C(=O)NS(=O)(=O)C1 (single isomer, unassigned) [Example 164]
(b) C[C@@H]1[C@@H](C)C/C=C/[C@H](OCCNc2ccccc2)[C@@H]2CC[C@H]2CN2C[C@@]3(CCCc4cc(Cl)ccc43)COc3ccc(cc32)C(=O)NS1(=O)=O [Example 11]
I'm curious whether a or b has the smaller IC50 number. Which is it? Identify your selection by its label.
a
(a: 1.44 nM, b: 5.22 nM)

(I) C[C@H]1C/C=C\[C@H](O)[C@@H]2CC[C@H]2CN2C[C@@]3(CCCc4cc(Cl)ccc43)COc3ccc(cc32)C(=O)NS(=O)(=O)N1 (single isomer, unassigned) [Example 62]
(II) CO[C@H]1/C=C/[C@@H](C)C[C@@H](C)S(=O)(=O)NC(=O)c2ccc3c(c2)N(C[C@@H]2CC[C@H]21)C[C@@]1(CCCc2cc(Cl)ccc21)CO3 [Example 1019]
Response body: label of entry with the larger IC50; valid values I , II . Identify your selection by its label.
II
(II: 0.497 nM, I: 0.266 nM)

----------
biological target: Mcl-1/Bim interaction, recombinant human Mcl-1 (171-327) (Homo sapiens); construct: made in house; test: Cell free Mcl-1: Bim Affinity Assay (Mcl-1 HTRF); format: binding; settings: TR-FRET, 0.1 nM Mcl-1 (171-327), 0.05 nM biotin-Bim (51-76)
Measured attribute: IC50 (nM)

Compound	Measurement unit	IC50
O=C1NS(=O)(=O)CCCCCS(=O)(=O)C2CCC2CN2C[C@@]3(CCCc4cc(Cl)ccc43)COc3ccc1cc32 (mixture of isomers)	nM	22.2
O=C1NS(=O)(=O)CCC/C=C/[C@@H](OCCN2CCOCC2)[C@@H]2CC[C@H]2CN2C[C@@]3(CCCc4cc(Cl)ccc43)COc3ccc1cc32	nM	1.08
O=C1NS(=O)(=O)C[C@@H](CO)C/C=C/[C@H](O)[C@@H]2CC[C@H]2CN2C[C@@]3(CCCc4cc(Cl)ccc43)COc3ccc1cc32	nM	0.421
C[C@H]1C/C=C/[C@H](OCCN2CCOCC2)[C@@H]2CC[C@H]2CN2C[C@@]3(CCCc4cc(Cl)ccc43)COc3ccc(cc32)C(=O)NS(=O)(=O)N1	nM	1.51
COCCOC[C@@H]1CC/C=C/[C@H](O)[C@@H]2CC[C@H]2CN2C[C@@]3(CCCc4cc(Cl)ccc43)COc3ccc(cc32)C(=O)NS1(=O)=O (single isomer, unassigned)	nM	0.951

(I) CO[C@@H]1/C=C/[C@@H](C)[C@@H](C)CS(=O)(=O)NC(=O)c2ccc3c(c2)N(C[C@@H]2CC[C@H]21)C[C@@]1(CCCc2cc(Cl)ccc21)CO3 (single isomer, unassigned)
(II) C[C@@H]1[C@@H](C)C/C=C/[C@H](OCC(=O)N2CC(O)C2)[C@@H]2CC[C@H]2CN2C[C@@]3(CCCc4cc(Cl)ccc43)COc3ccc(cc32)C(=O)NS1(=O)=O
(III) C[C@H]1CCCS(=O)(=O)NC(=O)c2ccc3c(c2)N(C[C@@H]2CC[C@H]2[C@@H](O)C1)C[C@@]1(CCCc2cc(Cl)ccc21)CO3 (single isomer, unassigned) [Example 243]
(IV) O=C1NS(=O)(=O)[C@H]2C[C@@H](/C=C/[C@H](O)[C@@H]3CC[C@H]3CN3C[C@@]4(CCCc5cc(Cl)ccc54)COc4ccc1cc43)C2
Please put the entries in order of rising IC50. // ordering of labels required in reply
II, IV, III, I
